- target.of.assay: UniProt:P30542
- Sequence (P30542 whole entry): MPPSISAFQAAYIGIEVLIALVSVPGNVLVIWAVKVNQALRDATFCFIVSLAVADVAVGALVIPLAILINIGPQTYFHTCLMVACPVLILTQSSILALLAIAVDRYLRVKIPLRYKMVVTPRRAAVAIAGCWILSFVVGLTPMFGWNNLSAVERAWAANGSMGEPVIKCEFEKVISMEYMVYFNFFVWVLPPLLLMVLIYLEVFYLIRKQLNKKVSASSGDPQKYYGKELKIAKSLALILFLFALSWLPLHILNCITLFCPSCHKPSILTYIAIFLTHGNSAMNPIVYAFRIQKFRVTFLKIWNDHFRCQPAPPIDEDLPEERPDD
readout.kind: Ki

# input Need Ki of O=C(C(=O)c1cn(Cc2ccccc2)c2ccccc12)c1ccco1 , thanks.
# output 0.343 µM

# input So what does the record say about Ki for O=C(Nc1ccccc1)C(=O)c1cn(Cc2ccccc2)c2ccccc12 ?
# output > 10 µM

# input # Ki lookup, item O=C(Nc1ccccc1)c1cn(Cc2ccccc2)c2ccccc12
# output > 10 µM

# input Return reported Ki; argument: O=C(C(=O)c1cn(Cc2ccccc2)c2ccccc12)c1ccccc1
# output 0.162 µM

# input Reported Ki for O=C(NCc1ccccc1)c1cn(Cc2ccccc2)c2ccccc12 : what is it?
# output > 10 µM

# input Please look up its Ki: O=C(C(=O)c1cn(Cc2ccccc2)c2ccccc12)c1cccs1
# output > 10 µM
